The measurements presented in this section are drawn from paper PMC6510909.

- method: Plasma pharmacokinetics on Cycle 1 Day 15, noncompartmental
- Type: in vivo, human
- condition_description: human, plasma, oral, 100 mg, 100 mg MMB QD n = 6; steady state, plasma; mean (% coefficient of variation); read-out: Cmax
observable: Cmax (ng/mL)
Answers are plain numbers, in ng/mL.

Request: For N#CCNC(=O)c1ccc(-c2ccnc(Nc3ccc(N4CCOCC4)cc3)n2)cc1 , what is its reported Cmax?
Response: 258

----------
- method: Plasma pharmacokinetics on Cycle 1 Day 15, noncompartmental
- Type: in vivo, human
- condition_description: human, plasma, oral, 200 mg, 200 mg MMB QD n = 6; steady state; mean (% coefficient of variation)
observable: AUC
Enter the number, and then the unit.

Request: For N#CCNC(=O)c1ccc(-c2ccnc(Nc3ccc(N4CCOCC4)cc3)n2)cc1 , what is its reported AUC?
Response: 3.34 µg·h/mL
